What EC50 was measured for each of the following?
Target: T1, Human DLL3 full-length protein on cells (human, UniProt Q9NYJ7 27-618)
T1 construct: H1184 and DMS53 express DLL3 themselves; The cell line is named under assay; also called H1184 cells; DLL3/H82
T1 sequence: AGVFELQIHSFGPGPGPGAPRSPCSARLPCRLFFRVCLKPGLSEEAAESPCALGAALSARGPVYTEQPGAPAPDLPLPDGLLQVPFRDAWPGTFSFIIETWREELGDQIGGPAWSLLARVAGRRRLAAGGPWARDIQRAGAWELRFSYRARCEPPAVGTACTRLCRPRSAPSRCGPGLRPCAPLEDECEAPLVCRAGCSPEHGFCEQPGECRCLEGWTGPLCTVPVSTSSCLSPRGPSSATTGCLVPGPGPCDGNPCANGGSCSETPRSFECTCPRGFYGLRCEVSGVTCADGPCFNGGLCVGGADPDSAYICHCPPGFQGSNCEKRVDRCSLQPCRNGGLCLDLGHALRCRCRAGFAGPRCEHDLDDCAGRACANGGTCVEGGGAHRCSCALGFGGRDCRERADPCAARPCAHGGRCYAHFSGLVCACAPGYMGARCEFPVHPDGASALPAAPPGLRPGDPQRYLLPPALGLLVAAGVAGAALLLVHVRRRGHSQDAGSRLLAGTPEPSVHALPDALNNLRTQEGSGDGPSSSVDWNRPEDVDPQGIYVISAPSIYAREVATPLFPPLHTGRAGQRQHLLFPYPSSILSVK
Test: FACS on H1184 cells
Procedure: Cells of the DLL3-expressing small cell lung cancer cell lines H1184 (ATCC, Cat. No. CRL-5858), DLL3/H82, cynoDLL3/CHO-s, and RatDLL3/CHO-s were suspended at 1×10^6/mL in FACS buffer (1% BSA+pH 7.4 PBS), and the cell suspensions were added to a 96-well round-bottom plate (Corning, 3795) at 100 μL/well. The plate was centrifuged at 300 g for 5 min, and the supernatant was removed. Different concentrations of test antibodies were added at 100 μL/well. […]
Numbers only, in nM.

Hu100 (antibody, human IgG1, kappa, V domains shown, also called hAb100L1H1) VH: EVQLVESGGGLVKPGGSLRLSCAASGFTFSDSGMHWIRQAPGKGLEWVSYISSGSSTIHYADTVKGRFTISRDNAKNSLYLQMNSLRAEDTAVYYCASPLYYYGRSYNAVAYWGQGTTVTVSS VL: DIQMTQSPSSLSASVGDRVTITCHASQNINVWLSWYQQKPGKVPKLLIYKASDLHTGVPSRFSGSGSGTDFTLTISSLQPEDVATYYCQQGQSYPLTFGGGTKVEIKR	0.15

Consider the record given below.
[in] Which EC50 reading was recorded for the binder hAb6L4H6 (antibody, human IgG1, kappa, V domains shown) VH: EVQLVQSGSELKKPGASVKVSCKASGYTFTDYYMNWVRQAPGQGLEWMGIINPYSGVTIYNHKFKGRFVLSVDKSSNTAYLQISSLKAEDTAVYYCARQDSLLDYAMDYWGQGTTVTVSS VL: DIQMTQSPSSLSASVGDRVTITCHASQGISGNMGWLQQKPGKAPKGLIYHGANLEDGVPSRFSGSGSGADYTLTISSLQPEDFADYYCVQYAQFPYTFGGGTKVEIKR ?
[out] 0.17

Each recorded value in this set is attributed to patent US20250057968A1.
